Please provide measured IC50 for the entries that follow.
# subject_of_test: Microphthalmia-associated transcription factor (Homo sapiens)
# test_protocol: MITF inhibitors by FRET titration, dose response, biochemical, high throughput (AID 1259375);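 note: FRET between CFP-tagged and YFP-tagged MITF protein partners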
# condition_summary: FRET biochemical assay, MITF inhibition
Activity calls are given as the source filed them. The rule behind the calls is not given here.

Consider the worked cases shown below.
Prompt line: Identify the reported IC50 for the following entry. O=C1NC(=O)/C(=C\c2ccc(O)cc2O)S1
Response line: > 6.48 µM (inactive)

Prompt line: Identify the reported IC50 for the following entry. Cc1ccc(C(=O)Nc2ccc([N+](=O)[O-])cn2)o1
Response line: > 6.48 µM (inactive)

Prompt line: Identify the reported IC50 for the following entry. CCN(CC)c1ncnc2c1ncn2[C@@H]1O[C@H](COP(=O)(O)OP(=O)(O)C(Br)(Br)P(=O)(O)O)C(O)[C@@H]1O (stereo not given in full)
Response line: > 6.48 µM (inactive)

Prompt line: Identify the reported IC50 for the following entry. O=C1Nc2c(C(=O)O)cccc2C1=O
Response line: > 7.92 µM (inactive)

Switching to the query record.
Prompt line: Identify the reported IC50 for the following entry. N#C/C(=C(/O)COC(=O)c1cc2c(s1)CCC2)c1nc2ccccc2[nH]1
Response line: > 7.1 µM (inactive)

###

# subject_of_test: Microphthalmia-associated transcription factor (Homo sapiens) (UniProt O75030)
# Sequence (O75030 whole entry, looked up): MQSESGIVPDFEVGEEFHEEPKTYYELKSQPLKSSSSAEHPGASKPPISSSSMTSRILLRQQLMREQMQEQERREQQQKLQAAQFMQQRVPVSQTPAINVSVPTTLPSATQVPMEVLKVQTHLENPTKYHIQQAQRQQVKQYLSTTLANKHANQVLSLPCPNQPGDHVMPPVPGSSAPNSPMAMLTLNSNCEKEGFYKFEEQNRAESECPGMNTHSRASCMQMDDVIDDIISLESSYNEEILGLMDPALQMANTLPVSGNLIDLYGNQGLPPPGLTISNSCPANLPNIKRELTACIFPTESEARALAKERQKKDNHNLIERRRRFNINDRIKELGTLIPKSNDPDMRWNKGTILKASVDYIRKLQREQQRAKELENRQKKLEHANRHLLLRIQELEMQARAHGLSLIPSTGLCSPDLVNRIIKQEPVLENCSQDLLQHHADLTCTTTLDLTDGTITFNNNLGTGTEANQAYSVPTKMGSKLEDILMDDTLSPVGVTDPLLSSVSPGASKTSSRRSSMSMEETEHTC
# test_protocol: MITF inhibitors by FRET titration, dose response, biochemical, high throughput (AID 1259375);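 note: FRET between CFP-tagged and YFP-tagged MITF protein partners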
# condition_summary: FRET biochemical assay, MITF inhibition
Active and inactive are the calls of the source. No rule for the calls is given here.
reported_metric: IC50

Prompt line: GET IC50 | system: Microphthalmia-associated transcription factor (Homo sapiens) (UniProt O75030) | item: C[C@@H](OCc1ccccc1)[C@@H]1NC(=O)[C@H]2CN(C(=O)NCc3ccccc3)CCN2C1=O
Response line: > 6.48 µM (inactive)

Prompt line: GET IC50 | system: Microphthalmia-associated transcription factor (Homo sapiens) (UniProt O75030) | item: Clc1ccc(CN2CCN(Cc3c[nH]c4ccccc34)CC2)cc1
Response line: > 5.86 µM (inactive)

Prompt line: GET IC50 | system: Microphthalmia-associated transcription factor (Homo sapiens) (UniProt O75030) | item: COc1cccc(CN2CCN(C(=O)c3ccc(F)cc3)CC2)c1
Response line: > 5.27 µM (inactive)

Required: IC50, one value per molecule below.
1. O=C(CCc1ccco1)Nc1ccc(-c2cn3c4c(nnc3n2)CCCC4)cc1
2. O=C(Nc1ccc(N2CCOCC2)cc1)c1ccc2nc(-c3cccs3)sc2c1

Response line:
1: > 6.48 µM (inactive); 2: > 7.76 µM (inactive)

###

# subject_of_test: Microphthalmia-associated transcription factor (Homo sapiens) (UniProt O75030)
# test_protocol: MITF inhibitors by FRET titration, dose response, biochemical, high throughput (AID 1259375);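 note: FRET between CFP-tagged and YFP-tagged MITF protein partners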
# condition_summary: FRET biochemical assay, MITF inhibition
The source made the active and inactive calls. How the calls were made is not given here.
Give your call using only these classes: active, inactive

Look over these answered cases.
Prompt line: What was the test verdict on COc1ccc2c(c1)CC(C(=O)Nc1ccc(-c3cn[nH]c3)cc1OCC#N)CO2 (stereo not drawn) ?
Response line: inactive

Prompt line: What was the test verdict on C=CCc1cc(C)ccc1OCCCCn1ccnc1 ?
Response line: inactive

Prompt line: What was the test verdict on CCc1ccc(CN2CCN(C(C)C)CC2)cc1 ?
Response line: inactive

Prompt line: What was the test verdict on NCC1OC(=O)C(Oc2ccccc2)=C1Br (stereo not drawn) ?
Response line: inactive

Continuing:
Prompt line: What was the test verdict on O=C(NC1CCCCC1)N1CCN2C(=O)[C@@H]3C[C@@H](O)CN3C(=O)[C@H]2C1 ?
Response line: inactive

Prompt line: What was the test verdict on C[C@H]1NC(=O)[C@H]2CN(C(=O)NC3CCCCC3)CCN2C1=O ?
Response line: inactive

Prompt line: What was the test verdict on N#Cc1c(-c2ccc3c(c2)OCO3)nc(N2CCCCC2)[nH]c1=O ?
Response line: inactive

Prompt line: What was the test verdict on CN(c1cccc(NS(=O)(=O)c2ccc([N+](=O)[O-])cc2)c1)S(C)(=O)=O ?
Response line: inactive

Prompt line: What was the test verdict on O=C(O)CSc1cc(Cl)c2nonc2c1[N+](=O)[O-] ?
Response line: active

Prompt line: What was the test verdict on O=C1N[C@@H](COCc2ccccc2)C(=O)N2CCN(C(=O)NCc3ccccc3)C[C@H]12 ?
Response line: inactive

Prompt line: What was the test verdict on C=CCNCCOCCOc1ccc(OCC)cc1 ?
Response line: inactive

Prompt line: What was the test verdict on CC(=O)Oc1ccccc1N1C(=O)c2ccc(Oc3cccc(N)c3)cc2C1=O ?
Response line: active

###

# subject_of_test: UniProt O75030
# test_protocol: MITF inhibitors by FRET titration, dose response, biochemical, high throughput (AID 1259375);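 note: FRET between CFP-tagged and YFP-tagged MITF protein partners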
# condition_summary: FRET biochemical assay, MITF inhibition
Calls of active or inactive are those of the source. How the calls were made is not given here.
reported_metric: IC50

Consider the worked cases shown below.
Prompt line: GET IC50 | system: UniProt O75030 | item: C[C@@H](O)[C@@H]1NC(=O)[C@H]2CN(C(=O)NCc3ccccc3)CCN2C1=O
Response line: > 6.48 µM (inactive)

Prompt line: GET IC50 | system: UniProt O75030 | item: CCN(CC)C(=S)NC(=O)/C=C/c1ccco1
Response line: > 6.48 µM (inactive)

Prompt line: GET IC50 | system: UniProt O75030 | item: NC(=O)CSc1ccc(C(N)=O)cc1[N+](=O)[O-]
Response line: > 7.11 µM (inactive)

Required: IC50, one value per compound below.
1. C/C=C\C1=C(C(=O)O)N2C(=O)C(NC(=O)C(N)c3ccc(O)cc3)C2SC1 (stereo not given)
2. O=C1N[C@@H](Cc2ccc(O)cc2)C(=O)N2CCN(C(=O)NCc3ccccc3)C[C@H]12

Response line:
1. > 6.48 µM (inactive)
2. > 6.48 µM (inactive)

###

# subject_of_test: Microphthalmia-associated transcription factor (Homo sapiens)
# test_protocol: MITF inhibitors by FRET titration, dose response, biochemical, high throughput (AID 1259375);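 note: FRET between CFP-tagged and YFP-tagged MITF protein partners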
# condition_summary: FRET biochemical assay, MITF inhibition
Active and inactive are the calls of the source. The rule behind the calls is not given here.
Give your call using only these classes: active, inactive

Look over these answered cases.
Prompt line: What was the test verdict on O=C(OCCCC(=O)N1CCOCC1)c1cc(-c2ccco2)nc2ccccc12 ?
Response line: inactive

Prompt line: What was the test verdict on CCS(=O)(=O)NCC(c1cccs1)S(=O)(=O)c1ccc(C)cc1 (stereo unspecified) ?
Response line: inactive

Prompt line: What was the test verdict on Cc1c(NC(=S)NC(=O)/C=C/c2ccco2)cccc1C(=O)O ?
Response line: active

Prompt line: What was the test verdict on CCOC(=O)Cc1[nH]nc2c1C1(C(=O)N(CC)c3ccccc31)C(C#N)=C(N)O2 (stereo unspecified) ?
Response line: inactive

Prompt line: What was the test verdict on COc1cc(OC)c(C(=O)OC2CCCC2=O)cc1OC (stereo unspecified) ?
Response line: inactive

Prompt line: What was the test verdict on O=C(/C=C/c1ccco1)ON1C(=O)c2ccccc2C1=O ?
Response line: inactive

Continuing:
Prompt line: What was the test verdict on O=C(O)c1ccc(CNC(=O)c2cocc2C(=O)O)o1 ?
Response line: inactive

###

# subject_of_test: Microphthalmia-associated transcription factor (Homo sapiens)
# test_protocol: MITF inhibitors by FRET titration, dose response, biochemical, high throughput (AID 1259375);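 note: FRET between CFP-tagged and YFP-tagged MITF protein partners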
# condition_summary: FRET biochemical assay, MITF inhibition
Active and inactive are the calls of the source. How the calls were made is not given here.
reported_metric: IC50

Consider the worked cases shown below.
Prompt line: Identify the reported IC50 for the following entry. O=C(NC1CCCCC1)N1CCN2C(=O)[C@@H]3CSCN3C(=O)[C@H]2C1
Response line: > 6.48 µM (inactive)

Prompt line: Identify the reported IC50 for the following entry. CC(C)NC(=O)c1cccc(NC(=O)Nc2ccc(-c3ncnc4[nH]cc(Cl)c34)cc2)c1
Response line: > 6.48 µM (inactive)

Prompt line: Identify the reported IC50 for the following entry. NC(=O)NC(=O)COC(=O)c1c2c(nc3ccccc13)/C(=C\c1ccco1)CCC2
Response line: > 7.04 µM (inactive)

Prompt line: Identify the reported IC50 for the following entry. O=C(O)c1c2c(nc3ccc(S(=O)(=O)N4CCC(C(=O)O)CC4)cc13)CCC2
Response line: > 6.48 µM (inactive)

Switching to the query record.
Prompt line: Identify the reported IC50 for the following entry. CC(C)[C@@H]1NC(=O)[C@H]2CN(C(=O)NC3CCCCC3)CCN2C1=O
Response line: > 6.48 µM (inactive)

###

# subject_of_test: Microphthalmia-associated transcription factor (Homo sapiens) (UniProt O75030)
# test_protocol: MITF inhibitors by FRET titration, dose response, biochemical, high throughput (AID 1259375);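 note: FRET between CFP-tagged and YFP-tagged MITF protein partners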
# condition_summary: FRET biochemical assay, MITF inhibition
Activity calls are given as the source filed them. The rule behind the calls is not given here.
Give your call using only these classes: active, inactive

Look over these answered cases.
Prompt line: What was the test verdict on O=C(COC(=O)COc1ccc(Cl)cc1)NCc1ccco1 ?
Response line: inactive

Prompt line: What was the test verdict on COc1ccc(C[C@@H]2NC(=O)[C@H]3CN(C(=O)NC4CCCCC4)CCN3C2=O)cc1 ?
Response line: inactive

Prompt line: What was the test verdict on CN(C)c1ccc(O)c2c1C[C@H]1C[C@H]3[C@H](N(C)C)C(=O)C(C(N)=O)=C(O)[C@@]3(O)C(=O)C1=C2O ?
Response line: active

Prompt line: What was the test verdict on N#CC(C#N)=C(N)/C(C#N)=C/c1ccc([N+](=O)[O-])o1 ?
Response line: active

Prompt line: What was the test verdict on O=C(OC1(C(F)(F)F)C(=O)Nc2cc3c(cc21)OCO3)c1ccc(Cl)nc1 (stereo not drawn) ?
Response line: active

Prompt line: What was the test verdict on COC(=O)CN1C(=O)S/C(=C/c2ccc([N+](=O)[O-])o2)C1=O ?
Response line: inactive

Prompt line: What was the test verdict on O=C(Nc1ccc(Cl)cc1Cl)N1CCN2C(=O)[C@@H]3CSCN3C(=O)[C@H]2C1 ?
Response line: inactive

Prompt line: What was the test verdict on CCN1CCN(Cc2coc3ccccc3c2=O)CC1 ?
Response line: inactive

Prompt line: What was the test verdict on Cc1c(NC(=O)C(C)OC(=O)c2cc3c(s2)CCC3)c(=O)n(-c2ccccc2)n1C (stereo not drawn) ?
Response line: inactive

Prompt line: What was the test verdict on Cc1cccc(N2CCN(C(=O)/C=C\C(=O)O)CC2)c1C ?
Response line: inactive

Continue with the next molecule.
Prompt line: What was the test verdict on O=C(O)c1ccc(NC2OC(CO)C(O)C2O)cc1 (stereo not drawn) ?
Response line: inactive
